The entries below come with measured Median MFI (PE-A) values attached.
Biological target: T1, control peptide mixture P20/HLA-A*02:01 complexes on T2 cells (human)
T1 construct: whole, on cells; A pool of 20 different peptide/HLA-A*02:01 complexes on one cell population, not a single complex; also called T2-P20
Assay: flow cytometry, scFv phage on T2 cells, anti-M13 + PE anti-mouse IgG
measure: Median MFI (PE-A) (MFI)

binder | assay.result
Phage clone 31 (scFv, fusion to the phage coat protein not described) scFv: QAVLTQPSSLSASPGASASLTCTLRSGINVGTYRIYWYQQKPGSPPQYLLRYKSDSDKQQGSGVPSRFSGSKDASANAGILLISGLQSEDEADYYCMIWHSSAWVFGGGTKLTVLGSRGGGGSGGGGSGGGGSLEMAEVQLVESGGGLVQPGGSLRLSCAASGLTFDRYAMSWVRQAAGKGLERFSAITGDGYYTYYADSVKGRFTISRDNSKNTLYLQMNSLGAEDTAVYYCARLSGIGRSSYDGWGQGTLVTVSS | 128
Phage clone 5 (scFv, fusion to the phage coat protein not described; also called anti-HMC scFv 5) scFv: DVVMTQSPLSLPVTLGQPASISCRSSQSLVYSNGNTYLNWFHQRPGQSPRRLIYEVSNRDSGVPDRFSGSGSGTDFTLKISRVEAEDVGVYYCMQGTHWPPTFGGGTKLEIKRSRGGGGSGGGGSGGGGSLEMAEVQLVQSGAEVKKPGESLKISCKGSGYSFTSYWIGWVRQMPGKGLEWMGIIYPGDSDTRYSPSFQGQVTISADKSISTAYLQWSSLKASDTAMYYCARGYDGWGQGTLVTVSS | 703
Phage clone 10 (scFv, fusion to the phage coat protein not described) scFv: EIVLTQSPLSLPVTLGQPASISCRSSQSLVYSNGNTYLSWFHQRPGQSPRRLIYKVSKRDSGVPDRFSGSGSGTDFTLKISRVEAEDVGVFYCMQGTYWPYTFGQGTKLEIKRSRGGGGSGGGGSGGGGSLEMAEVQLVQSGAEVKKPGESLKISCKGSGYSFTSYWIGWVRQMPGKGLEWMGIIYPGDSDTRYSPSFQGQVTISADKSISTAYLQWSSLKASDTAMYYCARGFDNWGQGTLVTVSS | 2010
Phage clone 13 (scFv, fusion to the phage coat protein not described) scFv: DVVMTQSPLSLPVTLGQPASISCRSSQSLIYSNGNTYLTWFHQRPGQPPRRLIHKVSNRDSGVPDRFSGSGSGSDFTLKISRVEAEDVGIYYCMQGTHWPPTFGGGTKLEIKRSRGGGGSGGGGSGGGGSLEMAEVQLVQSGAEVKKPGESLKISCKGSGYSFTSYWIGWVRQMPGKGLEWMGIIYPGDSDTRYSPSFQGQVTISADKSISTAYLQWSSLKASDTAMYYCARGYDVWGQGTLVTVSS | 1560
